# Test system: SK-MEL-28 melanoma
# methodNotes: NCI tumour cell line growth inhibition, 48 h
endpoint: GI50

{"compound": "O=C1C(Cl)=C(Nc2cccc(F)c2)C(=O)N1Cc1ccc(Cl)cc1", "reportedResult": "2960 nM"}
{"compound": "CCOC(=O)Nc1ccc2c(c1)/C(=N\\NC(N)=S)c1ccccc1-2", "reportedResult": "4580 nM"}
{"compound": "Cc1cccc(/C=C/c2c(C(=O)/C=C/c3ccccc3)c(C)nc3ccccc23)c1", "reportedResult": "1810 nM"}
{"compound": "Fc1ccc(C2CC(c3cccc(Nc4ccncc4)c3)=NN2c2ccc(Cl)cc2)cc1 (centres undefined)", "reportedResult": "1720 nM"}
{"compound": "COc1ccc2[nH]cc(-c3ccc(-c4c[nH]c5ccc(OC)cc45)s3)c2c1", "reportedResult": "12600 nM"}
{"compound": "CCN1C(=O)N(CC)C2C1NN=c1s/c(=C\\c3cccc(F)c3)c(=O)n12 (centres undefined)", "reportedResult": "13100 nM"}
{"compound": "C=C1C(=O)O[C@H]2[C@H]1CC/C(CNC(=O)/C=C/c1cc(OC)c(OC)c(OC)c1)=C\\CC[C@@]1(C)O[C@@H]21", "reportedResult": "1430 nM"}
{"compound": "O=c1[nH]c(=O)c2cn[nH]c2[nH]1", "reportedResult": "> 100000 nM"}
{"compound": "C/C=C(\\C)C(=O)NC1=CC[C@@]2(C)C(=CCC3C2CC[C@@]2(C)C3CC[C@@H]2C(C)N(C)C)C1=O (some centres undefined)", "reportedResult": "1720 nM"}
